System: M. marinum (Mm) strain M (ATCC BAA-535)
experimental_details: microbe, parasite or virus in culture
Format: cell-based
test_context: Mycobacterium marinum, ATCCBAA535, read-out: MIC M. marinum strain M
Numbered stars: 1 amine (or outer) side, 2 acyl side, 3 side chain; on linkers, the order of the positions; unused ones are H or OH. Bridge positions count the residues as written; N and C are the ends. Square brackets hold non-standard residues; d marks the D form. Peptide text beside a SMILES is read from it. * marks the point of attachment. ξ: configuration not given here. X2 = CCCC1CC(C(=O)[*:2])N([*:1])C1; X1 = CCC1CC(C(=O)[*:2])N([*:1])C1; Butanoyl(2-oxo) = CCC(=O)C(=O)*; NMeAhp(2) = CCCCC[CH](NC)C(=O)O; ξPro(4ξ-Me) = CC1CNC(C(=O)O)C1; NMeT = CN[CH](C(=O)O)[CH](C)O; NMeL = CN[CH](CC(C)C)C(=O)O; hLeu = CC(C)CC[CH](N)C(=O)O; NMeV = CN[CH](C(=O)O)C(C)C
parameter: MIC (µg/mL)
The reply should be a number in µg/mL, with the unit left off.

Look over these answered cases.
[
  {
    "compound": "CCC(=O)C(=O)N(C)C(C(=O)N1CC(C)CC1C(=O)N(C)C1C(=O)NC(CC(C)C)C(=O)N2CC(C)CC2C(=O)NC(CCC(C)C)C(=O)N(C)C(C(C)C)C(=O)N2CCCC2C(=O)N(C)C(CC(C)C)C(=O)NCC(=O)OC1C)C(C)C (stereo not drawn)",
    "MIC (µg/mL)": 2
  },
  {
    "compound": "CCC(=O)C(=O)N(C)C(C(=O)N1CC(CC)CC1C(=O)N(C)C1C(=O)NC(CC(C)C)C(=O)N2CC(C)CC2C(=O)NC(CCC(C)C)C(=O)N(C)C(C(C)C)C(=O)N2CCCC2C(=O)N(C)C(CC(C)C)C(=O)NCC(=O)OC1C)C(C)C (stereo not drawn) [Mycoplanecin A] ({Butanoyl(2-oxo)}-[NMeV][X1][NMeT]L[ξPro(4ξ-Me)][hLeu][NMeV]P[NMeL]G; ester 3-C; configuration not given here)",
    "MIC (µg/mL)": 0.5
  }
]

// fetch M. marinum (Mm) strain M (ATCC BAA-535) MIC for CCCCCC1C(=O)NCC(=O)OC(C)C(N(C)C(=O)C2CC(CCC)CN2C(=O)C(C(C)C)N(C)C(=O)C(=O)CC)C(=O)NC(CC(C)C)C(=O)N2CC(C)CC2C(=O)NC(CCC(C)C)C(=O)N(C)C(C(C)C)C(=O)N2CCCC2C(=O)N1C (stereo not drawn) [Mycoplanecin E] ({Butanoyl(2-oxo)}-[NMeV][X2][NMeT]L[ξPro(4ξ-Me)][hLeu][NMeV]P[NMeAhp(2)]G; ester 3-C; configuration not given here) 0.5

###

Tested on: M. marinum (Mm) strain M (ATCC BAA-535)
experimental_details: microbe, parasite or virus in culture
Type: cell-based
test_context: Mycobacterium marinum, ATCCBAA535, read-out: MIC M. marinum strain M
Numbered stars: 1 amine (or outer) side, 2 acyl side, 3 side chain; on linkers, the order of the positions; unused ones are H or OH. Bridge positions count the residues as written; N and C are the ends. Square brackets hold non-standard residues; d marks the D form. Peptide text beside a SMILES is read from it. * marks the point of attachment. ξ: configuration not given here. X2 = CCCC1CC(C(=O)[*:2])N([*:1])C1; Butanoyl(2-oxo) = CCC(=O)C(=O)*; ξPro(4ξ-Me) = CC1CNC(C(=O)O)C1; NMeT = CN[CH](C(=O)O)[CH](C)O; NMeL = CN[CH](CC(C)C)C(=O)O; hLeu = CC(C)CC[CH](N)C(=O)O; NMeV = CN[CH](C(=O)O)C(C)C
parameter: MIC (µg/mL)
Give just the numeric value; µg/mL need not be written.

Looking for the measured MIC of CCCC1CC(C(=O)N(C)C2C(=O)NC(CC(C)C)C(=O)N3CC(C)CC3C(=O)NC(CCC(C)C)C(=O)N(C)C(C(C)C)C(=O)N3CCCC3C(=O)N(C)C(CC(C)C)C(=O)NCC(=O)OC2C)N(C(=O)C(C(C)C)N(C)C(=O)C(=O)CC)C1 (stereo not shown) [Mycoplanecin D] ({Butanoyl(2-oxo)}-[NMeV][X2][NMeT]L[ξPro(4ξ-Me)][hLeu][NMeV]P[NMeL]G; ester 3-C; configuration not given here) , can you help? 1
